read-out: urokinase plasminogen activator (uPA), PLAU (gene 5328); experiment: BSK_BE3C_uPA: BioMAP Diversity Plus: BE3C Assay for urokinase plasminogen activator (uPA) Biomarker Activity (AID 2283038); details: primary human bronchial epithelial cells; actives raise or lower the signal
Activity calls are given as the source filed them. How the source made its calls: active means hit-call score of the fitted dose curve at least 0.9, where 1 is the maximum; inactive means score below 0.9.
In this exercise, the only acceptable responses are yes (active), no (inactive)

Below are worked cases with known answers.
compound	cat
CCNc1nc(N)nc(Cl)n1	yes
O=C(c1ccc(O)cc1O)c1ccc(O)cc1O	no
Cc1nn(C)c(Oc2ccccc2)c1C=NOCc1ccc(C(=O)OC(C)(C)C)cc1	no
CCOC(=O)C(C)Oc1ccc(Oc2nc3ccc(Cl)cc3o2)cc1 (stereo not drawn)	yes
COC(=O)c1cccc(C)c1S(=O)(=O)NC(=O)Nc1nc(OCC(F)(F)F)nc(N(C)C)n1	no

State the result this test recorded for `O=C(O)C1(C(=O)Nc2ccc(Cl)cc2Cl)CC1` .
no

State the result this test recorded for `c1ccc2[nH]c(-c3cscn3)nc2c1` .
no

State the result this test recorded for `CC(C)(C)[C@@H](O)[C@@H](Cc1ccc(Cl)cc1)n1cncn1` .
no

State the result this test recorded for CCCCCCC(C)OC(=O)COc1nc(F)c(Cl)c(N)c1Cl (stereo not drawn) .
no

State the result this test recorded for CCC(C)OC(=O)N1CCCCC1CCO (stereo not drawn) .
no

State the result this test recorded for `COC(=O)c1ccc(CNS(C)(=O)=O)cc1S(=O)(=O)NC(=O)Nc1nc(OC)cc(OC)n1` .
no

The reported measurements were obtained from PubChem BioAssay (EPA / NIEHS).
